// data source = patent US10370412B2

# System: human red blood cells (hRBC)
# Assay type: cell-based
# protocol_conditions: red cells of human, 1 h
Where a SMILES comes first, the peptide text is derived from it. [ ]: non-standard residue; d: D form. Cha = N[C@@H](CC1CCCCC1)C(=O)O; aThr = C[C@H](O)[C@H](N)C(=O)O; Tle = CC(C)(C)[C@H](N)C(=O)O; dDab = NCC[C@@H](N)C(=O)O; Orn = NCCC[C@H](N)C(=O)O; Dab = NCC[C@H](N)C(=O)O
measured_metric: Hemolysis at 100 μg/ml (%)

molecule: CC(C)C[C@@H]1NC(=O)[C@@H]2CCCN2C(=O)[C@H]2CCCN2C(=O)[C@H]([C@H](C)O)NC(=O)[C@H](C)NC(=O)[C@H](C(C)(C)C)NC(=O)[C@H](CCN)NC(=O)[C@H](Cc2c[nH]c3ccccc23)NC(=O)[C@H](CCN)NC(=O)[C@@H](CCN)NC(=O)[C@H](CCCN)NC(=O)[C@H](CCN)NC(=O)[C@H](CC2CCCCC2)NC(=O)[C@H](Cc2c[nH]cn2)NC1=O [Ex. 17] (cyclo(LH[Cha][Dab][Orn][dDab][Dab]W[Dab][Tle]A[aThr][dP]P))
measured_metric: Hemolysis at 100 μg/ml
measured: 5
